Data credit: patent WO2025083273A1

Collected Signal (FLU) values appear next to each entry.
Target: T1, human DR3 (TNFRSF25) expressed on cells (human, UniProt Q93038 25-417)
T1 sequence: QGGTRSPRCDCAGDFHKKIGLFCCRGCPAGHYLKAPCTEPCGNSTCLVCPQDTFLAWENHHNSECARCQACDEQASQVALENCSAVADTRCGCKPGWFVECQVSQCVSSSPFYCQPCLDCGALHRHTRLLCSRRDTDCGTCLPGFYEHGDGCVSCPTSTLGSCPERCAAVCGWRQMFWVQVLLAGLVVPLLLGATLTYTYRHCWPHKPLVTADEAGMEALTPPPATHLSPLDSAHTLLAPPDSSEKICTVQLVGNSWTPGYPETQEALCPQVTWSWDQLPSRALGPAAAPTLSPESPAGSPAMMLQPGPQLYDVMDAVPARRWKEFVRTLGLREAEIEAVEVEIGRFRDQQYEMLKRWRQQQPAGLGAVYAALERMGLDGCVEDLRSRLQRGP
Assay: cell-based or functional assay
Write down the numeric answer in FLU and omit the unit.

Example entries begin here.
- binder: "VHg10/VLg12 (antibody, human IgG1, V domains shown, human IgG1) VH: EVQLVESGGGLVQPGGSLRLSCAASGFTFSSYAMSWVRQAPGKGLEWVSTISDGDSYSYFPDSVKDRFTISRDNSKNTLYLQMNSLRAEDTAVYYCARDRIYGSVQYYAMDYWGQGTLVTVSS VL: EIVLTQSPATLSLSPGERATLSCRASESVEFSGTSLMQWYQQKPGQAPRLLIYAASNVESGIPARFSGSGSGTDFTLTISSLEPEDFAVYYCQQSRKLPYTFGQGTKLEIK"
  unit abbrev: "FLU"
  Signal (FLU): "3.56e+06"
- binder: "VHg9/mVL (antibody, human IgG1, V domains shown) VH: EVQLVESGGGLVKPGGSLRLSCAASGFTFSSYAMSWVRQAPGKGLEWVSTISDGDSYSYFPDSVKDRFTISRDNAKNSLYLQMNSLRAEDTAVYYCARDRIYGSVQYYAMDYWGQGTLVTVSS VL: DIVLTQSPASLAVSLGQRATISCRASESVEFSGTSLMQWYQQRPGLPPKLLIYAASNVESGVPARFSGSGSGTDFSLNIHPVEEDDIAMYFCQQSRKLPYTFGGGTKLEIN"
  unit abbrev: "FLU"
  Signal (FLU): "3.35e+06"

Consider the additional binder presented here.
// query For VHg3/VLg6 (antibody, human IgG1, V domains shown) VH: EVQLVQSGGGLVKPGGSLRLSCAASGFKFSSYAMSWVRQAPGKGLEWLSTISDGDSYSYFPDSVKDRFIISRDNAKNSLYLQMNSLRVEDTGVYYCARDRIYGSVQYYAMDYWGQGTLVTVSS VL: DVVMTQSPPSLPVTPGEPASISCRASESVEFSGTSLMQWYLQKPGQSPQVLIYAASNVESGVPDRFSGSGSGTDFTLKISRVEAEDVGVYYCQQSRKLPYTFGQGTRLEIK , what is its reported Signal (FLU)?
// result 2.05e+06
